studyTarget: Focal adhesion kinase 1 (Homo sapiens) (UniProt Q05397)
Sequence (Q05397 whole entry, looked up): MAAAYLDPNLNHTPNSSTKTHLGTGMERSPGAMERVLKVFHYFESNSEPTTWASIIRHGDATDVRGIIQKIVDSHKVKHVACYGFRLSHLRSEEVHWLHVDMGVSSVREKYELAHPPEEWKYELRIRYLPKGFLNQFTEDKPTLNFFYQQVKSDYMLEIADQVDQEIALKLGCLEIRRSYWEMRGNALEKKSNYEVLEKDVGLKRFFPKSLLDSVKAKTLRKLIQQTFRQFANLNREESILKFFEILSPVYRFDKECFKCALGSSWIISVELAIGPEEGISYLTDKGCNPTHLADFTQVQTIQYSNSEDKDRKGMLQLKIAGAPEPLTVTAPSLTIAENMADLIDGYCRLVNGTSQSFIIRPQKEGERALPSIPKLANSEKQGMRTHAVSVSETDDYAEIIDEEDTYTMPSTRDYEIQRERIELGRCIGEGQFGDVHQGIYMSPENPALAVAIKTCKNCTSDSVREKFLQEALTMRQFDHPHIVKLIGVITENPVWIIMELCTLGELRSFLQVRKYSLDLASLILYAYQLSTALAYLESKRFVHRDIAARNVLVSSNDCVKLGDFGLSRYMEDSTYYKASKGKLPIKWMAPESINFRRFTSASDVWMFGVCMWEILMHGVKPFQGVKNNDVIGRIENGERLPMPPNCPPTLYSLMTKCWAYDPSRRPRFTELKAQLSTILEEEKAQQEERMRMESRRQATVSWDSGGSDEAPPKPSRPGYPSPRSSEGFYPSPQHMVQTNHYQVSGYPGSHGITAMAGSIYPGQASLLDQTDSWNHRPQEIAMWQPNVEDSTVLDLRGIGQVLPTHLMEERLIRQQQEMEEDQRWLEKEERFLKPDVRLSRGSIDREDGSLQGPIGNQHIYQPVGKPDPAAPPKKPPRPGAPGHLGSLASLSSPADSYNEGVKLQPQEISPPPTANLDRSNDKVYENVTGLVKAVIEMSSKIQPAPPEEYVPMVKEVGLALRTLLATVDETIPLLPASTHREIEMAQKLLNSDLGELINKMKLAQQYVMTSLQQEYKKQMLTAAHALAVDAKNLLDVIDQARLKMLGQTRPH
assayProtocol: small-molecule microarray binders of FAK, primary screen, biochemical, 635/667 nm fluorescence, BSA, DTT (AID 1130);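 further: composite of spot emission at 667 nm and signal to noise over triplicate slides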
measurementConditions: PTK2 binding, 635 nm fluorescence, higher = more signal
measure: composite z-score
Give bare numbers.

Solved cases (3 shown):
{"columns": ["compound", "studyTarget", "obsValue"],
 "data": [
  ["CC(=O)OC[C@H]1O[C@H](CC=NO[C@@H](C)c2cc(-c3c(C)cc(C)cc3C)no2)C=C[C@@H]1OC(C)=O", "Focal adhesion kinase 1 (Homo sapiens) (UniProt Q05397)", -0.206],
  ["CCOC(=O)[C@H](Cc1ccccc1)NC(=O)CCC1CC(OC(=O)NCc2cccc3ccccc23)CC2(CCCC(COC(=O)NCc3ccc4c(c3)OCO4)O2)O1 (stereo partly specified)", "Focal adhesion kinase 1 (Homo sapiens) (UniProt Q05397)", 0.338],
  ["CCOC(=O)[C@H](CC(C)C)NC(=O)CCC1CC(OC(=O)NCc2ccc3c(c2)OCO3)CC2(CCCC(COC(=O)NCCOc3ccccc3)O2)O1 (stereo partly specified)", "Focal adhesion kinase 1 (Homo sapiens) (UniProt Q05397)", 0.0776]
]}

Fill in composite z-score for each of the 4 compounds listed.
1. COC(=O)[C@H](C)NC(=O)CCC1CC(OC(=O)NCc2cccc3ccccc23)CC2(CCCC(COC(=O)NCc3cccc(C(F)(F)F)c3)O2)O1 (stereo partly specified)
2. CO[C@@H]1[C@H](O)CO[C@H]1C=Cc1ccccc1
3. O=C1C2=CC[C@H]3C(=O)N(Cc4ccccc4)C(=O)[C@H]3[C@H]2[C@H](O)[C@@H]2O[C@H]12
4. C#CCCCON=C1C[C@@H](O)[C@@H](O)[C@@H]2[C@@H]3C(=O)N([C@@H](C)c4ccccc4)C(=O)[C@@H]3CC[C@@H]12

[0.0625, 0.0086, -0.36, -0.0567]

Fill in composite z-score for each of the 5 compounds listed.
1. CC(CCC(=O)OC[C@H]1O[C@H](C#Cc2ccccc2)C=C[C@@H]1Oc1ccc(C)cc1)=NO[C@@H](C)c1cc(-c2c(C)cc(C)cc2C)no1
2. COC(=O)[C@@H]1CC[C@H](C)[C@@H](c2ccc(Br)cc2)N1C(=O)C(F)(F)F
3. CCOC(=O)CCN1C(=O)[C@H]2[C@H]3[C@H](O)[C@H](O)CC(=NOCC(C)C)[C@@H]3CC[C@H]2C1=O
4. O=C1[C@H]2[C@H]3[C@H](O)[C@H](O)CC(=NOCc4ccccc4)[C@H]3CC[C@H]2C(=O)N1C1CCCCC1
5. CSCC[C@@H]1NC(=O)CC=C[C@@H](C)COC(=O)[C@H](C)COC1=O

-0.0556
-0.0957
-0.286
0.041
-0.697

====

studyTarget: Pro-neuregulin-1, membrane-bound isoform (Homo sapiens) (UniProt Q02297)
Sequence (Q02297 whole entry, looked up, canonical isoform): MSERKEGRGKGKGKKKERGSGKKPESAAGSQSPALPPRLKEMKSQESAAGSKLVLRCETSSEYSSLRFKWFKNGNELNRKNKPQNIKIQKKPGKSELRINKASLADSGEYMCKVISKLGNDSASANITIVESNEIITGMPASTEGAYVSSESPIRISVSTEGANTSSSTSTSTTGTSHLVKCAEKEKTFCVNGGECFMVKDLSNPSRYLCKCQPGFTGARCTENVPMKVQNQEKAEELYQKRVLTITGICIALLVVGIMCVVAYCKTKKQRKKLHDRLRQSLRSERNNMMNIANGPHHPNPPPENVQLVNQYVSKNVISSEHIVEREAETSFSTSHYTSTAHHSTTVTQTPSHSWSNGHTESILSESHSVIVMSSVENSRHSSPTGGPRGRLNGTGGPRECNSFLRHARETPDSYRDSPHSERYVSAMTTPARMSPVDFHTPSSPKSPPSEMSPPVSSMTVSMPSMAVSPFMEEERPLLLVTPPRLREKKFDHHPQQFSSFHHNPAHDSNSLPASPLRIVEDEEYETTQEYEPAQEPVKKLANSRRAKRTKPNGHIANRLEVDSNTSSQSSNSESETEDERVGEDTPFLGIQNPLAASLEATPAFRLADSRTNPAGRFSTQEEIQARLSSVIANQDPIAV
assayProtocol: NRG1 binders on small-molecule microarrays, primary screen, psychiatric disease protein project, biochemical, small-molecule microarray, fluorescence 635/667 (AID 1075);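 further: score combines 667 nm spot fluorescence with signal to noise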
measurementConditions: NRG1 binding, 635 nm fluorescence, higher = more signal
measure: composite z-score
Give bare numbers.

Solved cases (6 shown):
{"columns": ["molecule", "measure", "obsValue"],
 "data": [
  ["COc1ccc(COC(=O)NN=C2C[C@@H](O)[C@@H](O)[C@@H]3[C@@H]4C(=O)N([C@@H](C)c5ccccc5)C(=O)[C@@H]4CC[C@@H]23)cc1", "composite z-score", 0.0605],
  ["C[C@H]1CC[C@H]2C(=O)O[C@H](CO)CN2[C@@H]1c1ccc(Br)cc1", "composite z-score", -0.102],
  ["CCN1C(=O)[C@H]2[C@H]3[C@H](O)[C@H](O)CC(=NOCC=C(C)CCC=C(C)C)[C@@H]3CC[C@H]2C1=O", "composite z-score", -0.0702],
  ["CC(CCC(=O)OC[C@H]1O[C@H](C#Cc2ccccc2)C=C[C@@H]1Oc1ccc(C)cc1)=NOC(C)CN1CCCc2nc(C)c(C)cc21 (some centres not stated)", "composite z-score", 0.617],
  ["CCN1C(=O)[C@H]2[C@H]3[C@H](O)[C@H](O)CC(=NOC[C@@H](O)[C@H]4O[C@@H]5OC(C)(C)O[C@@H]5[C@H]4O)[C@@H]3CC[C@H]2C1=O", "composite z-score", 0.12],
  ["COc1ccc(O[C@H]2C=C[C@@H](c3ccccc3)O[C@@H]2COC(=O)NCc2cccc3ccccc23)cc1", "composite z-score", -0.027]
]}

Entry CC(=O)OC[C@H]1O[C@@H](ON=C(C)CCC(=O)OC[C@H]2O[C@H](C#Cc3ccccc3)C=C[C@@H]2Oc2ccc(C)cc2)[C@H](OC(C)=O)[C@@H](OC(C)=O)[C@@H]1OC(C)=O : reported composite z-score = ?
0.51

====

System: glycogen synthase kinase-3 (GSK3A per assay name; protocol says GSK3B)
assayProtocol: GSK3 binders on small-molecule microarrays, primary screen, biochemical, small-molecule microarray, 635 nm fluorescence, GSK3A (AID 1103); further: the record names both GSK3A and GSK3B
measurementConditions: small-molecule microarray binding, fluorescence 635 nm; higher = more signal
measure: composite z-score
Numbers only.

Solved cases (5 shown):
{"columns": ["compound", "studyTarget", "composite z-score"],
 "data": [
  ["O=C(NN=C1C[C@@H](O)[C@@H](O)[C@@H]2[C@@H]3C(=O)N(Cc4ccccc4)C(=O)[C@@H]3CC[C@H]12)OCc1ccccc1", "glycogen synthase kinase-3 (GSK3A per assay name; protocol says GSK3B)", 0.256],
  ["COC(=O)[C@@H]1CC[C@H](C)[C@@H](c2ccc(C)cc2)N1C(=O)c1ccc(C=NOC[C@@H](O)[C@H]2O[C@@H]3OC(C)(C)O[C@@H]3[C@H]2O)cc1", "glycogen synthase kinase-3 (GSK3A per assay name; protocol says GSK3B)", 0.479],
  ["COC(=O)C1=C(C)N(Cc2ccccc2)C2=C3C(=O)OCC[C@@H]3[C@@](O)(C(=O)OC)C(=O)N2[C@@H]1c1ccccc1", "glycogen synthase kinase-3 (GSK3A per assay name; protocol says GSK3B)", 0.51],
  ["CC(C)(C)N1C(=O)[C@H]2[C@@H]3C(=CC[C@H]2C1=O)C(=O)[C@H]1O[C@H]1[C@H]3O", "glycogen synthase kinase-3 (GSK3A per assay name; protocol says GSK3B)", 0.138],
  ["CCCNC(=O)OC[C@H]1O[C@H](CCON=C[C@@H](NS(=O)(=O)c2ccc(C)cc2)[C@H](C)C=CCC(=O)OC)C=C[C@@H]1Oc1ccc(OC)cc1", "glycogen synthase kinase-3 (GSK3A per assay name; protocol says GSK3B)", -0.54]
]}

Fill in composite z-score for each of the 3 compounds listed.
1. C=CC[C@@H]1C=C[C@H](ON=C(C)CCN2CCCc3nc(C)c(C)cc32)[C@@H](CO)O1
2. COc1cccc([C@H](O)Cn2cc(-c3ccc(CON=C(C)C)cc3)nn2)c1
3. CCOC(=O)CCN1C(=O)[C@H]2[C@H]3[C@H](O)[C@H](O)CC(=NOCC=C(C)CCC=C(C)C)[C@@H]3CC[C@H]2C1=O

[1.15, -0.559, 0.659]

Fill in composite z-score for each of the 7 compounds listed.
1. CCCNC(=O)OC[C@H]1O[C@H](CCON=C2C[C@@H](O)[C@@H](O)[C@@H]3[C@@H]4C(=O)N(CC)C(=O)[C@@H]4CC[C@@H]23)C=C[C@@H]1Oc1ccc(OC)cc1
2. CO[C@H]1COC(=O)[C@H](C)COC(=O)[C@@H](OCc2ccccc2)C=C[C@@H]1C
3. O=C1C=C[C@@H](O)[C@@H]2[C@@H]3C(=O)N(Cc4ccc5c(c4)OCO5)C(=O)[C@@H]3CC[C@@H]12
4. CC(CCN1CCCc2nc(C)c(C)cc21)=NO[C@@H](C)c1cn([C@H](CO)Cc2ccccc2)nn1
5. C#CCCCON=C1C[C@@H](O)[C@@H](O)[C@@H]2[C@@H]3C(=O)N(C[C@@H]4CCCO4)C(=O)[C@@H]3CC[C@@H]12
6. CC(=O)OC[C@H]1O[C@H](CC=NOCC[C@@H]2C=C[C@H](OC(C)=O)[C@@H](COC(C)=O)O2)C=C[C@@H]1OC(C)=O
7. O=C1CCCC=C1C(O)C1CCCCC1 (stereo not given)

1: 1.05; 2: -0.357; 3: 0.719; 4: 0.471; 5: 0.223; 6: 0.93; 7: -0.0973

====

assayProtocol: compound binding in COS7 lysate, probe aLAP1, primary screen, cell lysate, small-molecule microarray (AID 1124);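 further: lysate comes from COS7 cells expressing LAP1 and is applied at 0.3 µg/mL; score merges spot fluorescence near 667 nm with signal-to-noise over triplicate slides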
measurementConditions: probe aLAP1, fluorescence, higher = more signal
Label scheme for composite z-score: lower than 0.2 is N, 0.2 and above is Y.

// known answers, use as guide
{"columns": ["molecule", "classLabel"],
 "data": [
  ["CC(=O)OC[C@H]1O[C@H](CC=NOC[C@@H](O)COCc2ccco2)C=C[C@@H]1OC(C)=O", "N"],
  ["CON(C)C(=O)c1nnc2c(n1)[nH]c1ccccc12", "Y"],
  ["CC(C)=CCCC(C)=CCON=C1C[C@@H](O)[C@@H](O)[C@@H]2[C@@H]3C(=O)N([C@@H](C)c4ccccc4)C(=O)[C@@H]3CC[C@@H]12", "N"],
  ["CC1(C)O[C@H]2O[C@H]([C@H](O)CON=C3[C@H]4CCn5c(=O)n(-c6ccccc6)c(=O)n5[C@H]4[C@H](O)[C@@H]4O[C@H]34)[C@H](O)[C@H]2O1", "N"],
  ["CC(C)=CCCC(C)=CCON=C1C[C@@H](O)[C@@H](O)[C@@H]2[C@@H]3C(=O)N(Cc4ccc5c(c4)OCO5)C(=O)[C@@H]3CC[C@@H]12", "Y"],
  ["O=C1[C@H]2[C@H]3[C@H](O)[C@H](O)CC(=NO[C@@H]4O[C@H](CO)[C@@H](O)[C@H](O)[C@H]4O)[C@H]3CC[C@H]2C(=O)N1c1ccc(F)cc1F", "N"]
]}

Record COC(=O)[C@H](C)NC(=O)CCC1CC(OC(=O)NCCc2ccc(F)cc2)CC2(CCCC(COC(=O)NCc3ccccc3)O2)O1 (some centres undefined) ; criterion: composite z-score no lower than 0.2. Met?
N

Record COC(=O)[C@H](C)NC(=O)CCC1CC(OC(=O)NCc2cccc3ccccc23)CC2(CCCC(COC(=O)NCCOc3ccccc3)O2)O1 (some centres undefined) ; criterion: composite z-score no lower than 0.2. Met?
N

Record CC(CCN1CCCc2nc(C)c(C)cc21)=NOC[C@@H](C)[C@H](OCc1ccccc1)C(C)C ; criterion: composite z-score no lower than 0.2. Met?
N

Record C=CC[C@@H]1C=C[C@H](ON=C(C)CCN2CCCCc3nc(C)c(C)cc32)[C@@H](CO)O1 ; criterion: composite z-score no lower than 0.2. Met?
N

Record CCN1C(=O)[C@H]2[C@H]3[C@H](O)[C@H](O)CC(=NO[C@@H](C)c4cc(-c5c(C)cc(C)cc5C)no4)[C@@H]3CC[C@H]2C1=O ; criterion: composite z-score no lower than 0.2. Met?
Y

Record C[C@@H]1CC[C@H]2C(=O)OC(CN3C(=O)c4ccccc4C3=O)CN2[C@H]1c1ccc(Br)cc1 (some centres undefined) ; criterion: composite z-score no lower than 0.2. Met?
Y

Record O=C(NN=C1C[C@@H](O)[C@@H](O)[C@@H]2[C@@H]3C(=O)N(Cc4ccc5c(c4)OCO5)C(=O)[C@@H]3CC[C@@H]12)OCc1ccccc1 ; criterion: composite z-score no lower than 0.2. Met?
N

Record CC(C)=CCCC(C)=CCON=C1C[C@@H](O)[C@@H](O)[C@@H]2[C@@H]3C(=O)N(c4cccc(Oc5ccccc5)c4)C(=O)[C@@H]3CC[C@H]12 ; criterion: composite z-score no lower than 0.2. Met?
N

Record C[C@H]1C=CCC(=O)OC[C@H](C)C(=O)N2CCC[C@H]2C(=O)OC1 ; criterion: composite z-score no lower than 0.2. Met?
Y

Measured values drawn from PubChem BioAssay for this set.
